Field: % DOSE PER GRAM, TUMOR. Provide a value for each of the molecules that follow.
- Test system: T-380 tumors
- experiment_description: Hapten biodistribution, premix protocol with bifunctional antibody ECH037.2
- Type: in vivo, nude mice
- run_conditions: 48 hours; premix with 20 µg ECH037.2
Answers are plain numbers, in % DOSE PER GRAM.

Before answering, review these 4 worked examples.
Input: Requested read-out: % DOSE PER GRAM, TUMOR. Entry: O=C(O)CCNC(=S)Nc1ccc(CC(CN(CC(=O)O)CC(=O)O)N(CC(=O)O)CC(=O)O)cc1 (stereo not shown) [PATUBE]
Output: 9.8

Input: Requested read-out: % DOSE PER GRAM, TUMOR. Entry: CC(=O)NC(CCCCNC(=S)Nc1ccc(CC(CN(CC(=O)O)CC(=O)O)N(CC(=O)O)CC(=O)O)cc1)C(N)=O (stereo not shown) [BALTUBE]
Output: 12.9

Input: Requested read-out: % DOSE PER GRAM, TUMOR. Entry: NCCNC(=S)Nc1ccc(CC(CN(CC(=O)O)CC(=O)O)N(CC(=O)O)CC(=O)O)cc1 (stereo not shown) [NUBE]
Output: 8.1

Input: Requested read-out: % DOSE PER GRAM, TUMOR. Entry: CCCCNC(=S)Nc1ccc(CC(CN(CC(=O)O)CC(=O)O)N(CC(=O)O)CC(=O)O)cc1 (stereo not shown) [BUTUBE]
Output: 5.7

Please give % DOSE PER GRAM, TUMOR for each item listed below.
1. O=C(O)CCCNC(=S)Nc1ccc(CC(CN(CC(=O)O)CC(=O)O)N(CC(=O)O)CC(=O)O)cc1 (stereo not shown) [BATUBE]
2. NC(=S)Nc1ccc(CC(CN(CC(=O)O)CC(=O)O)N(CC(=O)O)CC(=O)O)cc1 (stereo not shown) [TUBE]

Output:
[12.1, 6.5]

Please give % DOSE PER GRAM, TUMOR for each item listed below.
1. O=C(O)CCCC(=O)NCCNC(=S)Nc1ccc(CC(CN(CC(=O)O)CC(=O)O)N(CC(=O)O)CC(=O)O)cc1 (stereo not shown) [GNUBE]
2. O=C(O)CN(CC(=O)O)CC(Cc1ccc(NC(=S)NCCO)cc1)N(CC(=O)O)CC(=O)O (stereo not shown) [EOTUBE]
3. O=C(O)CN(CC(=O)O)CC(Cc1ccc(NC(=S)Nc2ccccc2)cc1)N(CC(=O)O)CC(=O)O (stereo not shown) [PHTUBE]
4. O=C(O)Cc1ccc(NC(=S)Nc2ccc(CC(CN(CC(=O)O)CC(=O)O)N(CC(=O)O)CC(=O)O)cc2)cc1 (stereo not shown) [PHATUBE]
5. O=C(O)CN(CC(=O)O)CC(Cc1ccc(NC(=S)NCc2ccccc2)cc1)N(CC(=O)O)CC(=O)O (stereo not shown) [BETUBE]
6. CCNC(=S)Nc1ccc(CC(CN(CC(=O)O)CC(=O)O)N(CC(=O)O)CC(=O)O)cc1 (stereo not shown) [ETUBE]
7. CCCCCCCCNC(=S)Nc1ccc(CC(CN(CC(=O)O)CC(=O)O)N(CC(=O)O)CC(=O)O)cc1 (stereo not shown) [OTUBE]

Output:
1. 12.0
2. 14.5
3. 10.6
4. 6.9
5. 7.5
6. 10.4
7. 0.7

* * *

- Tested on: T-380 tumors
- experiment_description: Hapten biodistribution, premix protocol with bifunctional antibody ECH037.2
- Format: in vivo, nude mice
- run_conditions: 48 hours; premix with 20 µg ECH037.2
- Description: Two protocols were used for examining the biodistribution of the derivatized haptens in the presence of the bifunctional antibody ECH037.2. In a premix protocol, ECH037.2 and the derivatized hapten were combined prior to injection in the animals. […] Relative radioactive content of each organ was expressed as a percentage of injected dose per organ. […]
Field: % DOSE PER GRAM, LIVER. Provide a value for each of the molecules that follow.
Give bare numbers, in % DOSE PER GRAM.

Before answering, review these 3 worked examples.
Input: Requested read-out: % DOSE PER GRAM, LIVER. Entry: O=C(O)CCNC(=S)Nc1ccc(CC(CN(CC(=O)O)CC(=O)O)N(CC(=O)O)CC(=O)O)cc1 (stereo not shown) [PATUBE]
Output: 2.4

Input: Requested read-out: % DOSE PER GRAM, LIVER. Entry: NC(=S)Nc1ccc(CC(CN(CC(=O)O)CC(=O)O)N(CC(=O)O)CC(=O)O)cc1 (stereo not shown) [TUBE]
Output: 1.6

Input: Requested read-out: % DOSE PER GRAM, LIVER. Entry: CCCCNC(=S)Nc1ccc(CC(CN(CC(=O)O)CC(=O)O)N(CC(=O)O)CC(=O)O)cc1 (stereo not shown) [BUTUBE]
Output: 3.8

Please look at the following molecule next.
Input: Requested read-out: % DOSE PER GRAM, LIVER. Entry: O=C(O)Cc1ccc(NC(=S)Nc2ccc(CC(CN(CC(=O)O)CC(=O)O)N(CC(=O)O)CC(=O)O)cc2)cc1 (stereo not shown) [PHATUBE]
Output: 1.1

* * *

- System: T-380 tumors
- experiment_description: Hapten biodistribution, premix protocol with bifunctional antibody ECH037.2
- Assay type: in vivo, nude mice
- Set-up: unit not given here
- run_conditions: 48 hours; premix with 20 µg ECH037.2
Everything with TOTAL RECOV lower than 60 is NO; everything else, including exactly 60, is YES.

Consider the following illustrative entries.
Input: API: above_or_equal(metric=TOTAL RECOV, cutoff=60) for item CC(=O)NC(CCCCNC(=S)Nc1ccc(CC(CN(CC(=O)O)CC(=O)O)N(CC(=O)O)CC(=O)O)cc1)C(N)=O (stereo not drawn) [BALTUBE]
Output: NO

Input: API: above_or_equal(metric=TOTAL RECOV, cutoff=60) for item CCCCNC(=S)Nc1ccc(CC(CN(CC(=O)O)CC(=O)O)N(CC(=O)O)CC(=O)O)cc1 (stereo not drawn) [BUTUBE]
Output: YES

Input: API: above_or_equal(metric=TOTAL RECOV, cutoff=60) for item NC(=S)Nc1ccc(CC(CN(CC(=O)O)CC(=O)O)N(CC(=O)O)CC(=O)O)cc1 (stereo not drawn) [TUBE]
Output: YES

Input: API: above_or_equal(metric=TOTAL RECOV, cutoff=60) for item NCCNC(=S)Nc1ccc(CC(CN(CC(=O)O)CC(=O)O)N(CC(=O)O)CC(=O)O)cc1 (stereo not drawn) [NUBE]
Output: YES

Input: API: above_or_equal(metric=TOTAL RECOV, cutoff=60) for item O=C(O)CN(CC(=O)O)CC(Cc1ccc(NC(=S)Nc2ccccc2)cc1)N(CC(=O)O)CC(=O)O (stereo not drawn) [PHTUBE]
Output: YES

Input: API: above_or_equal(metric=TOTAL RECOV, cutoff=60) for item CCCCCCCCNC(=S)Nc1ccc(CC(CN(CC(=O)O)CC(=O)O)N(CC(=O)O)CC(=O)O)cc1 (stereo not drawn) [OTUBE]
Output: YES

Input: API: above_or_equal(metric=TOTAL RECOV, cutoff=60) for item O=C(O)CCCNC(=S)Nc1ccc(CC(CN(CC(=O)O)CC(=O)O)N(CC(=O)O)CC(=O)O)cc1 (stereo not drawn) [BATUBE]
Output: YES

Input: API: above_or_equal(metric=TOTAL RECOV, cutoff=60) for item O=C(O)CCCC(=O)NCCNC(=S)Nc1ccc(CC(CN(CC(=O)O)CC(=O)O)N(CC(=O)O)CC(=O)O)cc1 (stereo not drawn) [GNUBE]
Output: YES

Continuing:
Input: API: above_or_equal(metric=TOTAL RECOV, cutoff=60) for item CCNC(=S)Nc1ccc(CC(CN(CC(=O)O)CC(=O)O)N(CC(=O)O)CC(=O)O)cc1 (stereo not drawn) [ETUBE]
Output: YES

Input: API: above_or_equal(metric=TOTAL RECOV, cutoff=60) for item O=C(O)Cc1ccc(NC(=S)Nc2ccc(CC(CN(CC(=O)O)CC(=O)O)N(CC(=O)O)CC(=O)O)cc2)cc1 (stereo not drawn) [PHATUBE]
Output: YES

Input: API: above_or_equal(metric=TOTAL RECOV, cutoff=60) for item O=C(O)CN(CC(=O)O)CC(Cc1ccc(NC(=S)NCc2ccccc2)cc1)N(CC(=O)O)CC(=O)O (stereo not drawn) [BETUBE]
Output: NO

* * *

- System: T-380 tumors
- experiment_description: Hapten biodistribution, premix protocol with bifunctional antibody ECH037.2
- Type: in vivo, nude mice
- run_conditions: 24 hours; premix with 20 µg ECH037.2
experimental_readout: URINE

Before answering, review these 4 worked examples.
Input: Requested read-out: URINE. Entry: CCNC(=S)Nc1ccc(CC(CN(CC(=O)O)CC(=O)O)N(CC(=O)O)CC(=O)O)cc1 (centres unmarked)
Output: 25.8% of total injected dose

Input: Requested read-out: URINE. Entry: CCCCCCCCNC(=S)Nc1ccc(CC(CN(CC(=O)O)CC(=O)O)N(CC(=O)O)CC(=O)O)cc1 (centres unmarked)
Output: 8.9% of total injected dose

Input: Requested read-out: URINE. Entry: CCCCNC(=S)Nc1ccc(CC(CN(CC(=O)O)CC(=O)O)N(CC(=O)O)CC(=O)O)cc1 (centres unmarked)
Output: 22.0% of total injected dose

Input: Requested read-out: URINE. Entry: NC(=S)Nc1ccc(CC(CN(CC(=O)O)CC(=O)O)N(CC(=O)O)CC(=O)O)cc1 (centres unmarked)
Output: 23.7% of total injected dose

Please give URINE for each item listed below.
1. O=C(O)CCCNC(=S)Nc1ccc(CC(CN(CC(=O)O)CC(=O)O)N(CC(=O)O)CC(=O)O)cc1 (centres unmarked)
2. O=C(O)CCNC(=S)Nc1ccc(CC(CN(CC(=O)O)CC(=O)O)N(CC(=O)O)CC(=O)O)cc1 (centres unmarked)
3. O=C(O)CN(CC(=O)O)CC(Cc1ccc(NC(=S)NCCO)cc1)N(CC(=O)O)CC(=O)O (centres unmarked)
4. O=C(O)Cc1ccc(NC(=S)Nc2ccc(CC(CN(CC(=O)O)CC(=O)O)N(CC(=O)O)CC(=O)O)cc2)cc1 (centres unmarked)

Output:
20.0% of total injected dose
23.6% of total injected dose
25.9% of total injected dose
21.7% of total injected dose
